Ref: patent US9409952B2

Test: Metabolic stability in human hepatic microsome
Type: in vitro ADME
Conditions: microsomes, pH 7.4; human hepatic microsome, NADPH(+); read-out: CL NADPH(+)
Starred links: 1 amine or outer side, 2 acyl side, 3 side chain; linkers in the order of their positions; H or OH if unused. Positions of bridges follow the written chain, without caps; N, C: chain ends. Non-standard residues stand in square brackets, D forms with d. Residues, ends and D or L forms follow the SMILES beside them. *: point of attachment. NMeF = CN[C@@H](Cc1ccccc1)C(=O)O; NMeGABA = CN(CCCC(=O)[*:2])[*:1]; NMeL = CN[C@@H](CC(C)C)C(=O)O; NMeV = CN[C@H](C(=O)O)C(C)C; NMeA = CN[C@@H](C)C(=O)O; Piperidide = C1CCN(*)CC1; dNMeA = CN[C@H](C)C(=O)O; Sar = CNCC(=O)O; tBu = CC(C)(C)*
property-label: microsomal CLint at 1 uM (µL/min/mg)
Reply with just the number (in µL/min/mg).

Q) What value of measured microsomal CLint at 1 uM is listed for CC(C)C[C@@H]1NC(=O)[C@H](CC(C)C)N(C)C(=O)CNC(=O)[C@H](C(C)C)N(C)C(=O)[C@H](C)N(C)C(=O)[C@H]([C@@H](C)O)NC(=O)[C@H](C)N(C)C(=O)CCCN(C)C(=O)C[C@@H](C(=O)N(C)[C@@H](Cc2ccccc2)C(=O)N[C@@H](C)C(=O)N2CCCCC2)NC(=O)[C@H](Cc2ccccc2)NC(=O)[C@H](CC(C)C)N(C)C1=O [DP-365] ([NMeGABA][NMeA]T[NMeA][NMeV]G[NMeL]L[NMeL]FD[NMeF]A-Piperidide; lactam N-11) ?
A) 35

Q) What value of measured microsomal CLint at 1 uM is listed for CC(C)C[C@H]1C(=O)N[C@H](C(=O)N2CCCCC2)CC(=O)N[C@H](C)C(=O)N(C)[C@@H](CC(C)C)C(=O)N(C)[C@@H](Cc2ccccc2)C(=O)N(C)[C@@H](CC(C)C)C(=O)N[C@@H]([C@@H](C)O)C(=O)N1C [DP-740] ([dA][NMeL][NMeF][NMeL]T[NMeL]D-Piperidide; lactam N-7) ?
A) 483

Q) What value of measured microsomal CLint at 1 uM is listed for CC(C)C[C@H]1C(=O)N[C@H](C(=O)N2CCCCC2)CC(=O)N(C)[C@H](C)C(=O)N(C)[C@@H](Cc2ccccc2)C(=O)N(C)[C@@H](CC(C)C)C(=O)N[C@@H]([C@@H](C)O)C(=O)N(C)CC(=O)N[C@@H](COC(C)(C)C)C(=O)N1C [DP-527] ([dNMeA][NMeF][NMeL]T[Sar]S(tBu)[NMeL]D-Piperidide; lactam N-8) ?
A) 30

* * *

Assay: Metabolic stability in human hepatic microsome
Assay type: in vitro ADME
Conditions: microsomes, pH 7.4; human hepatic microsome, NADPH(+); read-out: CL NADPH(+)
Positions of bridges follow the written chain, without caps; N, C: chain ends. Non-standard residues stand in square brackets, D forms with d. Residues, ends and D or L forms follow the SMILES beside them. *: point of attachment. NMeF = CN[C@@H](Cc1ccccc1)C(=O)O; NMeL = CN[C@@H](CC(C)C)C(=O)O; NMeV = CN[C@H](C(=O)O)C(C)C; NMeS = CN[C@@H](CO)C(=O)O; NMeA = CN[C@@H](C)C(=O)O; Piperidide = C1CCN(*)CC1; dNMeA = CN[C@H](C)C(=O)O; β3hA = C[C@H](N)CC(=O)O; Sar = CNCC(=O)O
property-label: microsomal CLint at 1 uM (µL/min/mg)
Reply with just the number (in µL/min/mg).

Q) What value of measured microsomal CLint at 1 uM is listed for CC(C)C[C@@H]1NC(=O)C[C@H](C)NC(=O)[C@H](C(C)C)NC(=O)[C@H](CC(C)C)N(C)C(=O)CN(C)C(=O)[C@H](CC(C)C)NC(=O)[C@H](CO)N(C)C(=O)[C@H](CC(C)C)N(C)C(=O)[C@H](CC(C)C)N(C)C(=O)[C@H](CC(C)C)N(C)C(=O)[C@@H](CC(C)C)NC1=O [DP-643] (cyclo(L[Sar][NMeL]V[β3hA]L[dL][NMeL][NMeL][NMeL][NMeS])) ?
A) 24

Q) What value of measured microsomal CLint at 1 uM is listed for CC(C)C[C@@H]1NC(=O)[C@@H](C(C)C)NC(=O)C[C@@H](C(=O)N2CCCCC2)NC(=O)[C@H](Cc2ccccc2)N(C)C(=O)[C@H](CC(C)C)N(C)C(=O)[C@H](Cc2ccccc2)NC(=O)[C@H](C)N(C)C(=O)[C@H]([C@@H](C)O)NC1=O [DP-701] ([dV]LT[NMeA]F[NMeL][NMeF]D-Piperidide; lactam N-8) ?
A) 69

Q) What value of measured microsomal CLint at 1 uM is listed for CC[C@H](C)[C@@H]1NC(=O)CN(C)C(=O)[C@H]([C@@H](C)O)NC(=O)[C@H](C(C)C)N(C)C(=O)[C@@H](C)N(C)C(=O)C[C@@H](C(=O)N2CCCCC2)NC(=O)[C@H](CC(C)C)NC(=O)[C@H](Cc2ccccc2)N(C)C(=O)[C@H](CC(C)C)N(C)C(=O)[C@H](C)N(C)C1=O [DP-433] ([dNMeA][NMeV]T[Sar]I[NMeA][NMeL][NMeF]LD-Piperidide; lactam N-10) ?
A) 35
